# System: Astrocyte
# TEST SUMMARY: Cytotoxicity against rat astrocytes
# Assay type: functional, cell-based
Reported IC50 values are given for each entry in this list.

Would you kindly share the measured IC50 for O=c1[nH]cc(F)c(=O)[nH]1 [FLUOROURACIL] ?
> 100 µM

Check `Oc1ccc(CCNCCc2ccc(-c3ccccc3)cc2)cc1O` too.
> 100 µM

Check N[C@@H](Cc1ccc(N(CCCl)CCCl)cc1)C(=O)O [MELPHALAN] too.
34 µM

Check O=C(c1ccccc1)c1ccc(CC2NCCc3cc(O)c(O)cc32)cc1 (stereo not given) too.
21 µM

New cases:
Would you kindly share the measured IC50 for COc1cc2c(cc1OC)C(Cc1ccc(-c3ccccc3)cc1)NCC2 (stereo not given) ?
83.8 µM
